# STUDY SYSTEM: T1, human VISTA expressed on cells (human, UniProt Q9H7M9 33-295)
# T1 sequence: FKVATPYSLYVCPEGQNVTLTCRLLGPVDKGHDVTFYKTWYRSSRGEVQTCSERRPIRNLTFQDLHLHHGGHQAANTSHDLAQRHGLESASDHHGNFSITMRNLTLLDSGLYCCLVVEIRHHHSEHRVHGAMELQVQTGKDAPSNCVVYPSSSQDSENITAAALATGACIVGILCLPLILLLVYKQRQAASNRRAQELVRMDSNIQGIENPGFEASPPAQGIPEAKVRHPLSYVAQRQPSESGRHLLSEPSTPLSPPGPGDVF
# ASSAY PROCEDURE: cell-based or functional assay
This section presents binders with their documented IC50, IFN-γ in the SEB assay values.

{"columns": ["BINDER", "IC50, IFN-γ in the SEB assay"],
 "data": [
  ["VSTB53 (antibody, human IgG1, kappa, V domains shown) VH: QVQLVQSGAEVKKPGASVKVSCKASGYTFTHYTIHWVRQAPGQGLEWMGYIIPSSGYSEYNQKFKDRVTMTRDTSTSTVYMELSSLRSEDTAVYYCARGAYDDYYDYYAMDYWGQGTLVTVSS VL: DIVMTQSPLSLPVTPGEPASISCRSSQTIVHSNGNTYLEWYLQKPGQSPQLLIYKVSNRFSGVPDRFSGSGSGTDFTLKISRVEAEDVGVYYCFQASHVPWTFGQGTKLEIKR", "-1.05 log10 of antibody concentration"]
]}

I am curious: what IC50, IFN-γ in the SEB assay value has been reported for VSTB116 (antibody, human IgG1, kappa, V domains shown) VH: QVQLVQSGAEVKKPGSSVKVSCKASGGTFSSYAISWVRQAPGQGLEWMGGIIPIFGTANYAQKFQGRVTITADESTSTAYMELSSLRSEDTAVYYCARSSYGWSYEFDYWGQGTLVTVSS VL: DIQMTQSPSSLSASVGDRVTITCRASQSINTNLNWYQQKPGKAPKLLIYAASSLQSGVPSRFSGSGSGTDFTLTISSLQPEDFATYYCQQARDTPITFGQGTKVEIKR ?
-0.35 log10 of antibody concentration

And what about the binder VSTB50 (antibody, human IgG1, kappa, V domains shown) VH: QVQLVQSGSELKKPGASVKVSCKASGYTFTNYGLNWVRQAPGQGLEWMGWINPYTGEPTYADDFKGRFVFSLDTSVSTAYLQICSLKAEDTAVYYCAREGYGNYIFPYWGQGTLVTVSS VL: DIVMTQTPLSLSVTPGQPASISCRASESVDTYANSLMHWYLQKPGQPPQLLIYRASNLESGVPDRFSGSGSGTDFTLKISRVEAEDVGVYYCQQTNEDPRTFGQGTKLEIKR ?
1.69 log10 of antibody concentration

And what about the binder VSTB95 (antibody, human IgG1, kappa, V domains shown) VH: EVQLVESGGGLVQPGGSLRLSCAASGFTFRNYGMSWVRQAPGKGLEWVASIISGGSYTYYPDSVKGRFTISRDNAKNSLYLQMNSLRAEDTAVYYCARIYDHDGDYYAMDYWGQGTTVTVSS VL: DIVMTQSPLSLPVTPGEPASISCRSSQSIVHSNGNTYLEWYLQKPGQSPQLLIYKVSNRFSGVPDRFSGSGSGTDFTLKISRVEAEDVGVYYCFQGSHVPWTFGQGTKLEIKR ?
0.05 log10 of antibody concentration

Measured values drawn from patent US20210171640A1 for this set.
